Reference source: ChEMBL document CHEMBL1201862

Tested on: SF-539
Test: NCI tumour cell line growth inhibition, 48 h
The source made the active and inactive calls. Rule as the data show it: active = GI50 up to about 1.1 µM and inactive = higher.
Below, each entry is listed alongside its reported GI50.

- molecule: "C/N=C/N(C)c1c2ccccc2nc2ccccc12"
  GI50: "> 100 µM (inactive)"
- molecule: "CCOC(=O)CCc1cn2cc(Br)nc(OC)c2n1"
  GI50: "50.5 µM (inactive)"
- molecule: "OC1NC2CC3NC(O)C(O)NC3CC2NC1O (configuration not stated)"
  GI50: "> 100 µM (inactive)"
- molecule: "CCCCSC1=N/C(=C\\c2ccccc2O)C(Cl)=N1"
  GI50: "> 100 µM (inactive)"
- molecule: "CC(C)(C)C(=O)N1CCN(C=O)C1=S"
  GI50: "> 100 µM (inactive)"
- molecule: "CC1(C=O)CCC23COC4(CCC5C6(C)CCC(OC7OCC(OC8OC(CO)C(O)C(OC9OC(CO)C(O)C(O)C9O)C8OC8OCC(O)C(O)C8O)C(O)C7OC7OC(CO)C(O)C(O)C7O)C(C)(C)C6CCC5(C)C4(C)CC2O)C3C1 (configuration not stated)"
  GI50: "1.3 µM (inactive)"
- molecule: "CN(C(=O)c1cc2c(s1)sc1c(=O)n(C)c3ccccc3c12)c1ccccc1"
  GI50: "5.45 µM (inactive)"
- molecule: "CC1NOC(=O)C1/N=N/c1ccc(Cl)cc1Cl (configuration not stated)"
  GI50: "47.4 µM (inactive)"
- molecule: "Cc1c2c(C#N)nccc2c(C)c2c1c1ccccc1n2Cc1ccccc1"
  GI50: "> 100 µM (inactive)"
- molecule: "CN(C)CC1CC/C(=C\\c2ccc(Cl)c(Cl)c2)C1=O (configuration not stated)"
  GI50: "> 40.5 µM (inactive)"
- molecule: "N=c1c2ccccc2nc2oc3cc([N+](=O)[O-])ccc3n12"
  GI50: "22.3 µM (inactive)"
- molecule: "O=C(O)C1CCCCC1C(=O)Nn1cnnc1 (configuration not stated)"
  GI50: "> 100 µM (inactive)"

====

Tested on: SK-MEL-28
Experiment: NCI tumour cell line growth inhibition, 48 h
The source made the active and inactive calls. Rule as the data show it: active = GI50 up to about 1.1 µM and inactive = higher.
Possible outcomes: active, inactive

- compound: "COc1ccc(O)cc1C(O)c1ccccc1 (stereo not given)"
  label value: "inactive"
- compound: "O=C(O)CC(Cc1ccc2c(c1)OCO2)C(=O)O (stereo not given)"
  label value: "inactive"
- compound: "CN1CCC2(CC1)C(=O)N(N1CCCCCC1)C(=O)N2c1ccccc1"
  label value: "inactive"
- compound: "Clc1ccc(CCN2CCOCC2)c(Cl)c1"
  label value: "inactive"
- compound: "COC(=O)c1cc(CNCCc2c[nH]c3ccccc23)on1"
  label value: "inactive"
- compound: "O=C1NC(N2CCCCC2)=N/C1=C\\c1ccc(Cl)cc1"
  label value: "inactive"
- compound: "CC1C(O)=C(O)c2ccccc2N1O (stereo not given)"
  label value: "inactive"
- compound: "Cc1c2ccccc2c(C)n2c1nc1ccccc12"
  label value: "inactive"
- compound: "CCOC(=O)Nc1ccc(S(=O)(=O)Nc2ccc(Br)cc2)cc1"
  label value: "inactive"
- compound: "O=[N+]([O-])/C(C(Cl)=C(Cl)Cl)=C(\\N1CCCCC1)n1cncn1"
  label value: "inactive"
- compound: "O=C(Nc1noc(-c2ccccc2)n1)c1ccccc1CNc1noc(-c2ccccc2)n1"
  label value: "inactive"
- compound: "CCOP(=O)(OCC)C1CCCCOC1=O (stereo not given)"
  label value: "inactive"
- compound: "O=C(CSc1nnc(-c2ccccn2)s1)N/N=C/c1ccc([N+](=O)[O-])cc1"
  label value: "inactive"
- compound: "O=c1n(Cc2ccccc2)c(=O)n2c(=O)n(Cc3ccccc3)c(=O)n12"
  label value: "inactive"
- compound: "COc1cc2c(cc1OC)CC(=O)Nc1cc(OC)c(OC)cc1CC2"
  label value: "inactive"
- compound: "COC(=O)C12C(=O)O[C@H](C)C1(O)C(C)C(=O)N2C (stereo not given in full)"
  label value: "inactive"
- compound: "CCCCCCCCC(O)C#CC(N)=O (stereo not given)"
  label value: "inactive"
- compound: "CN(CCCCN(C)CCc1ccc(Cl)c(Cl)c1)CCCCN1CCCC1"
  label value: "active"
- compound: "CN(C)Cc1cc(/C=C/C(=O)c2ccc(Cl)c(Cl)c2)cc(CN(C)C)c1O"
  label value: "inactive"
- compound: "CNC(C)C(O)c1ccc2oc3cc(=O)c4ccccc4c-3nc2c1 (stereo not given)"
  label value: "inactive"
- compound: "CCOC(=O)COS(=O)(=O)C(F)(F)F"
  label value: "inactive"
- compound: "COC(=O)C1=C(C)NC(=O)N2[C@@H](CCOCc3ccccc3)CC[C@@H]12"
  label value: "inactive"
- compound: "COC1=C(OC)C(=O)C(Sc2ccc3ccccc3c2)=CC1=O"
  label value: "inactive"
- compound: "CC1=C(C(=O)CC(=O)C(=O)Nc2ccccc2)Sc2ccccc2N1"
  label value: "inactive"
- compound: "Cn1cc(S(=O)(=O)NC(=O)Nc2ccc(Cl)cc2)c(=O)c2ccc(Cl)cc21"
  label value: "inactive"
- compound: "CCCCCCCCCCCCCCCCCCNc1nc(=O)n(C2CC(O)C(COP(=O)(O)O)O2)cc1F (stereo not given)"
  label value: "inactive"
- compound: "CC(=O)OC1C(COC(N)=O)OC(n2c(-c3ccc(C)cc3)cc(-c3ccccc3)c(C#N)c2=O)C(OC(C)=O)C1OC(C)=O (stereo not given)"
  label value: "inactive"
- compound: "N#CC(/C(=N/NC(=N)N)C(=O)Nc1ccccc1[N+](=O)[O-])c1nc(-c2ccc([N+](=O)[O-])cc2)cs1 (stereo not given)"
  label value: "inactive"
- compound: "COc1cc(-c2oc3c(OC)c(O)cc(O)c3c(=O)c2OC)ccc1O"
  label value: "inactive"
- compound: "C=C1c2nc3ccccc3n2C=C(c2ccc(Cl)cc2)N1c1ccccc1"
  label value: "inactive"

====

System: KM12
Test: NCI tumour cell line growth inhibition, 48 h
Active and inactive are the calls of the source. Rule as the data show it: active = GI50 up to about 1.1 µM and inactive = higher. Where a SMILES comes first, the peptide text is derived from it. The star is where a group is joined. Boc = CC(C)(C)OC(=O)*; OSu = O=C1CCC(=O)N1O*
Below, each entry is listed alongside its reported GI50.

- compound: "O=C1c2ccccc2S(=O)(=O)c2cc(-c3nn[nH]n3)ccc21 [DOXANTRAZOLE]"
  GI50: "> 100 µM (inactive)"
- compound: "Cc1cc2c(=O)c3ccccc3[nH]c2c(C(=O)O)c1C"
  GI50: "> 100 µM (inactive)"
- compound: "CCOC(=O)c1c(N)sc2c1CC(C)CC2 (stereo not given)"
  GI50: "41.5 µM (inactive)"
- compound: "O=C(Cc1ccccc1)NN1C(=O)C(Cl)C1c1ccccc1 (stereo not given)"
  GI50: "66.4 µM (inactive)"
- compound: "CCC/C(C)=N/NC(=S)SC.CCC/C(C)=N/NC(=S)SC.[Zn+2]"
  GI50: "11.5 µM (inactive)"
- compound: "O=C1Nc2ccccc2N/C1=C\\C(=O)c1ccccc1O"
  GI50: "> 100 µM (inactive)"
- compound: "CNC(C)C(O)c1ccc2oc3cc(=O)c4ccccc4c-3nc2c1 (stereo not given)"
  GI50: "9.84 µM (inactive)"
- compound: "CC(C)(C)C(=O)N1CCN(C=O)C1=S"
  GI50: "75.9 µM (inactive)"
- compound: "CC(=O)SC(SC(C)=O)SC(C)=O"
  GI50: "> 100 µM (inactive)"
- compound: "Cc1cc(NC(=O)NC(=O)c2ccccc2NC(=O)CN)ccc1Oc1ncc(Br)cn1"
  GI50: "0.401 µM (active)"
- compound: "CS(=O)(=O)OCC(CCl)(CCl)CCl"
  GI50: "> 100 µM (inactive)"
- compound: "CCCCCCNC(=O)CCN(C(=O)O)S(=O)(=O)c1ccc(NC(=O)c2ccccc2)cc1"
  GI50: "> 57.4 µM (inactive)"
- compound: "O=c1[nH]nc(NNc2ccccc2)c2nnn(C3CCCCC3)c12"
  GI50: "> 100 µM (inactive)"
- compound: "Oc1cccc2c(Cl)ccnc12"
  GI50: "4.93 µM (inactive)"
- compound: "C/C(=C/C(=O)N(C)c1ccccc1Cl)O[Si](C(C)C)(C(C)C)C(C)C"
  GI50: "32.4 µM (inactive)"
- compound: "O=c1c2cc([N+](=O)[O-])cnc2sn1-c1ccc(Br)cc1"
  GI50: "40.8 µM (inactive)"
- compound: "Nn1c(S)nnc1NNC(=O)C(=O)Nc1cc(Cl)c(Cl)cc1Cl"
  GI50: "> 100 µM (inactive)"
- compound: "N#CC(/C(=N/NC(=N)N)C(=O)Nc1ccccc1[N+](=O)[O-])c1nc(-c2ccc([N+](=O)[O-])cc2)cs1 (stereo not given)"
  GI50: "> 100 µM (inactive)"
- compound: "CC(=O)NC1C(OCc2ccccc2)OC(CO)C(O)C1OCC(=O)N[C@@H](C)C(=O)N[C@H](CCC(=O)NCCCCNc1c2ccccc2nc2cccc([N+](=O)[O-])c12)C(N)=O (stereo not given in full)"
  GI50: "1.83 µM (inactive)"
- compound: "c1ccc(NN=C(c2ccccn2)c2ccccn2)nc1"
  GI50: "0.552 µM (active)"
- compound: "CN(C)CC1CC/C(=C\\c2ccc(Cl)c(Cl)c2)C1=O (stereo not given)"
  GI50: "11.5 µM (inactive)"
- compound: "CN(C)/C=C(\\C(=O)c1ccccc1)n1nc(-c2ccccc2)cc1-c1ccccc1"
  GI50: "> 10 µM (inactive)"
- compound: "O=C(Nc1noc(-c2ccccc2)n1)c1ccccc1CNc1noc(-c2ccccc2)n1"
  GI50: "> 100 µM (inactive)"
- compound: "CC1=C(Oc2ccccc2)C(CCC(=O)O)c2c(O)cc(Cl)c(O)c21 (stereo not given)"
  GI50: "> 100 µM (inactive)"
- compound: "CN(C)Cc1cc(/C=C/C(=O)c2ccc(Cl)c(Cl)c2)cc(CN(C)C)c1O"
  GI50: "13.1 µM (inactive)"
- compound: "O=C1c2ccccc2-c2nc(-c3ccncc3)cc3c2c1nc1ccccc13"
  GI50: "11.8 µM (inactive)"
- compound: "CC1=C(C#N)S(=O)(=O)c2c(oc(C)c2C)N1"
  GI50: "> 100 µM (inactive)"
- compound: "CC(C)(C)[Si](C)(C)OCC1CCC(n2cnc3c(NC(=O)c4ccccc4)ncnc32)O1 (stereo not given)"
  GI50: "17.3 µM (inactive)"
- compound: "O=C(Cc1ccccc1)N/N=C(/c1nc2ccc([N+](=O)[O-])cc2nc1O)C(O)c1ccco1 (stereo not given)"
  GI50: "> 100 µM (inactive)"
- compound: "COc1ccc(COC(=O)NNC(=O)C2CSC(c3ccccc3)N2C(C)=O)cc1 (stereo not given)"
  GI50: "> 100 µM (inactive)"
- compound: "COP(C)(=O)C(Cc1c[nH]c2ccccc12)NC(=O)OCc1ccccc1 (stereo not given)"
  GI50: "> 100 µM (inactive)"
- compound: "O=C(CCc1ccc(O)c(O)c1)NCCc1cc(O)cc(OCc2ccccc2)c1"
  GI50: "29.7 µM (inactive)"
- compound: "CC(C)(C)OC(=O)NC(Cc1ccc(O)cc1)C(=O)NC(CCCCN)C(=O)NC(Cc1ccc(O)cc1)C(=O)NC(CCCCN)C(=O)ON1C(=O)CCC1=O (stereo not given) (Boc-YKYK-OSu; configuration not given here)"
  GI50: "> 100 µM (inactive)"
- compound: "O=c1[nH]nc(Cc2ccccc2)n1/N=C/c1ccccc1Cl"
  GI50: "> 100 µM (inactive)"
- compound: "CCCCN(CCCC)C1=Nc2ccccc2-n2c(nnc2C(=O)OCC)C1"
  GI50: "29.4 µM (inactive)"
